assay: Phase 1 single ascending dose plasma pharmacokinetics in healthy volunteers; format: in vivo, human; conditions: human, po, 200 mg, Group 1, 200 mg single oral dose, read-out: Mean Cmax
recordedEndpoint: Cmax (ng/mL)

> print(dat)
                                 smilescode  recordedmeasurement
1  CC(=O)c1nn(CC(=O)N2C[C@H](F)C[C@H]2C(=O)Nc2cccc(Br)n2)c2ccc(-c3cnc(C)nc3)cc12                 1060

---

assay: Ocular tissue and plasma pharmacokinetics, 15 mg/kg single and BID oral, Dutch Belted rabbits (Example 3/5); format: in vivo; conditions: Dutch Belted, rabbit, iris-ciliary body, po, 15 mg/kg, DB rabbit, 15 mg/kg BID oral, Day 15, 168 h; read-out: Mean Iris-Ciliary Body concentration
recordedEndpoint: concentration at 168 h (ng/g)

> print(dat)
                                   compound  recordedmeasurement
1  CC(=O)c1nn(CC(=O)N2C[C@H](F)C[C@H]2C(=O)Nc2cccc(Br)n2)c2ccc(-c3cnc(C)nc3)cc12 [Compound 1]                  612
